Items are presented alongside their recorded Ki.
- TARGET_OR_SYSTEM: Gamma-aminobutyric acid receptor subunit alpha-3 (Homo sapiens, UniProt P18507+P28472+P34903)
- Sequence (P34903 whole entry, one chain of several): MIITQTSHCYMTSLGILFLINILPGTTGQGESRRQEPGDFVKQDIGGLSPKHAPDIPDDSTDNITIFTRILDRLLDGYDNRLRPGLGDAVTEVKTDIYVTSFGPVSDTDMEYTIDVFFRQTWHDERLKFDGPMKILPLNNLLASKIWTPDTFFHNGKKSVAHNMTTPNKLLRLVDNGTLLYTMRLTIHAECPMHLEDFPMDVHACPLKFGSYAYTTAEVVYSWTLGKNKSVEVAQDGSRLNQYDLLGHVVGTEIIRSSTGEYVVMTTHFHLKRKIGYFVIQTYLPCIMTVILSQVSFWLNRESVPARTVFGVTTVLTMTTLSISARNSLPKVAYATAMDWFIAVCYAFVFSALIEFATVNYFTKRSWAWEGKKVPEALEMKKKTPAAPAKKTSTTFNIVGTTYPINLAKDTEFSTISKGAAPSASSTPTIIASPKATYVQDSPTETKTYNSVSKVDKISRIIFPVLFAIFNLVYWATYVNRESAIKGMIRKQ
- ASSAY_TEXT: Displacement of [3H]flunitrazepam from human recombinant GABAA alpha-3-beta-3-gamma-2 receptor expressed in HEK293 cells
Please reply with the bare figure in µM and do not write the unit itself.

Sample records with Ki:
{"SMILES_REPRESENTATION": "C#Cc1ccc2c(c1)C(c1ccccc1)=NCc1c(C(=O)OCCCOC(=O)c3ncn4c3CN=C(c3ccccc3)c3cc(C#C)ccc3-4)ncn1-2", "UNIT_INFO": "µM", "EXPERIMENTAL_VALUE": 0.272}
{"SMILES_REPRESENTATION": "CCc1ccc2c(c1)C(=O)N(C)Cc1c(C(=O)OCCCOC(=O)c3ncn4c3CN(C)C(=O)c3cc(CC)ccc3-4)ncn1-2", "UNIT_INFO": "µM", "EXPERIMENTAL_VALUE": 8.55}
{"SMILES_REPRESENTATION": "C#Cc1ccc2c(c1)C(=O)N(C)Cc1c(C(=O)OCOCOC(=O)c3ncn4c3CN(C)C(=O)c3cc(C#C)ccc3-4)ncn1-2", "UNIT_INFO": "µM", "EXPERIMENTAL_VALUE": 1.86}

Query molecule follows.
So what's the measured Ki for this one? C#Cc1ccc2c(c1)C(=O)N(C)Cc1c(C(=O)OCCCCCOC(=O)c3ncn4c3CN(C)C(=O)c3cc(C#C)ccc3-4)ncn1-2 2.67

###

The entries below are paired with their reported Ki.
- TARGET_OR_SYSTEM: GABA-A receptor; alpha-6/beta-3/gamma-2 (Homo sapiens, UniProt P18507+P28472+Q16445)
- Sequence (P18507 whole entry): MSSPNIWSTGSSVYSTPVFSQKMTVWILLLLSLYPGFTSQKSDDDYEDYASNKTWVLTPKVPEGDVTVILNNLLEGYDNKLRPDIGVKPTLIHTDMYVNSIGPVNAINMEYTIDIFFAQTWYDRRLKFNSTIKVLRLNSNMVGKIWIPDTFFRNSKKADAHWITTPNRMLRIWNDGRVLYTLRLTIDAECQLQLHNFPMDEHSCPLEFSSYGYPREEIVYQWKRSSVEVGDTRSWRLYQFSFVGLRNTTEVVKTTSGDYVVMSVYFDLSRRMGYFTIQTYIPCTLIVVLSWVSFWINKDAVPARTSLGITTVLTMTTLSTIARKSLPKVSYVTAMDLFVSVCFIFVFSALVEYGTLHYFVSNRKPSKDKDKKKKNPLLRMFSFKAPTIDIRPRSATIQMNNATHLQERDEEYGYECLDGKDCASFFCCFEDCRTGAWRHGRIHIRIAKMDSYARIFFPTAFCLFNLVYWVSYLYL
- Sequence (P28472 whole entry): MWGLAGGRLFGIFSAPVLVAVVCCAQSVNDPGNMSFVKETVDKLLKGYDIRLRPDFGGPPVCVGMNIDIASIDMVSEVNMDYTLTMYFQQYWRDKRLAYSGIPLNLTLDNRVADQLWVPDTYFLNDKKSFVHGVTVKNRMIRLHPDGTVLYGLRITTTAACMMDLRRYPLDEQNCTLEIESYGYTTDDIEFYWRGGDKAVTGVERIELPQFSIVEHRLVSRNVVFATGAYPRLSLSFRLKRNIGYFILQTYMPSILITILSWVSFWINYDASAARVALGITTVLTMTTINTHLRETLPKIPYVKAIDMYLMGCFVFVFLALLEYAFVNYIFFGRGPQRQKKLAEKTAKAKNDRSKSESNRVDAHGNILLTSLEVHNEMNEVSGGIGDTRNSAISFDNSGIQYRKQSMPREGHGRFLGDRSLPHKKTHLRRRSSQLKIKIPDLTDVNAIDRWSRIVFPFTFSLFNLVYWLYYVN
- Sequence (Q16445 whole entry): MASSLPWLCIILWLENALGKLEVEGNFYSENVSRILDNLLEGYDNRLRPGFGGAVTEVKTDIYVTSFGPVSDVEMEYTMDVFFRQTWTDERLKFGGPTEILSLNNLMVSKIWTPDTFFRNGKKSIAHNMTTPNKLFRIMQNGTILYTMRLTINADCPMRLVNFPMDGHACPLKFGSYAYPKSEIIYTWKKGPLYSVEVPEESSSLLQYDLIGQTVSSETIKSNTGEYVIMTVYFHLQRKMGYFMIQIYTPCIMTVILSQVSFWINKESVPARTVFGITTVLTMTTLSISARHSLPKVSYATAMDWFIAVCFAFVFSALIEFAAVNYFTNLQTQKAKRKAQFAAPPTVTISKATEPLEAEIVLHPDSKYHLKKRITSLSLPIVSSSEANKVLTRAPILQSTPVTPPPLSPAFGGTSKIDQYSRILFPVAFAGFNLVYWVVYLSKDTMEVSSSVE
- ASSAY_TEXT: Displacement of [3H]flunitrazepam from human recombinant GABAA alpha-6-beta-3-gamma-2 receptor expressed in HEK293 cells
Dear colleague, please return just the value in µM, with no unit written.

{"SMILES_REPRESENTATION": "C#Cc1ccc2c(c1)C(=O)N(C)Cc1c(C(=O)OCCCCCOC(=O)c3ncn4c3CN(C)C(=O)c3cc(C#C)ccc3-4)ncn1-2", "UNIT_INFO": "µM", "EXPERIMENTAL_VALUE": 0.0542}
{"SMILES_REPRESENTATION": "C#Cc1ccc2c(c1)C(c1ccccc1)=NCc1c(C(=O)OCCOCCOC(=O)c3ncn4c3CN=C(c3ccccc3)c3cc(C#C)ccc3-4)ncn1-2", "UNIT_INFO": "µM", "EXPERIMENTAL_VALUE": 5}

Kindly consider the entry below.
For CCc1ccc2c(c1)C(=O)N(C)Cc1c(C(=O)OCCCOC(=O)c3ncn4c3CN(C)C(=O)c3cc(CC)ccc3-4)ncn1-2 , what is its reported Ki? 5

###

- TARGET_OR_SYSTEM: GABA A receptor alpha-4/beta-3/gamma-2 (Homo sapiens, UniProt P18507+P28472+P48169)
- Sequence (P48169 whole entry, one chain of several): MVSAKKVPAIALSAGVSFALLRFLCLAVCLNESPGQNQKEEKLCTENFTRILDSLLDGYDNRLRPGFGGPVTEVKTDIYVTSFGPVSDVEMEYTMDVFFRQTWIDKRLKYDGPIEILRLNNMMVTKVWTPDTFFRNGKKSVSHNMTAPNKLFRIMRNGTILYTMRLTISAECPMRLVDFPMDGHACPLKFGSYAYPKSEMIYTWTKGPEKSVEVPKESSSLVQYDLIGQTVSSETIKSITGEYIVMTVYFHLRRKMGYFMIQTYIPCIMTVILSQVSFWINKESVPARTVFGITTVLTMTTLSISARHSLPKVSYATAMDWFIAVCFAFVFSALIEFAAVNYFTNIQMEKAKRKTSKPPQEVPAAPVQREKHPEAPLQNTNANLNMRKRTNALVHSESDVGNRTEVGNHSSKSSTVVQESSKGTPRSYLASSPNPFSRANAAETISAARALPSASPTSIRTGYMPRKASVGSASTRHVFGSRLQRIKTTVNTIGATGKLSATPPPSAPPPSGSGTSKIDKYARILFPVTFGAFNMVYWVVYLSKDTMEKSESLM
- ASSAY_TEXT: Displacement of [3H]flunitrazepam from human recombinant GABAA alpha-4-beta-3-gamma-2 receptor expressed in HEK293 cells
EXPERIMENTAL_ENDPOINT: Ki (nM)
Your answer is read as nM, so omit the unit and give the number.

For the compound C#Cc1ccc2c(c1)C(=O)N(C)Cc1c(C(=O)OCC)ncn1-2 , what Ki is on record? 5.3
